Molecular target: purified recombinant human alpha synuclein fibrils (human, UniProt P37840 1-140)
Assay: SPR, Biacore T200, as in Example 3; full-length IgG4P injected
QUANTITY_MEASURED: pKd
pKd field: float, defined as -log10 of concentration (mol/L).

Would you mind telling me what pKd value was observed for VR6470 gL3; gH36-S56N-N102H (antibody, human IgG4 S228P, kappa, V domains shown, Full-length humanized human IgG4P) VH: EVQLLESGGGLVQPGGSLRLSCAVSGIDLSSHDMYWVRQAPGKGLEYIGAIYASGNTYYASWAKGRFTISRDSSKNTLYLQMNSLRAEDTAVYYCARIHYGHSGGLWGQGTLVTVSS VL: DIQMTQSPSSLSASVGDRVTITCQASQSVYKNNYLAWFQQKPGKAPKQLIYGASTLASGVPSRFSGSGSGTQFTLTISSLQPEDFATYYCAGYKGGRNDGFAFGGGTKVEIKR ?
10.23
